Target: KRas G13D (Homo sapiens, UniProt P01116, G13D)
Sequence (P01116 1-169 isoform P01116-2 G13D): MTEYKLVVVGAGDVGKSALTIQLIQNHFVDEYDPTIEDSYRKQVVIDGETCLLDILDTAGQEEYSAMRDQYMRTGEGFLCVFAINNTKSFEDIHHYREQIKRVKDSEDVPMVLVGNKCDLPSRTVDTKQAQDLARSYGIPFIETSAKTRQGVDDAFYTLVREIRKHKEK
Format: binding
Settings: TR-FRET displacement, read-out: Binding to KRas (IC50 nM) G13D
Readout Type: IC50 (nM)
Kindly answer with a numeric value in nM, unit omitted.

Here are 4 compounds together with their reported answers.
Compound	Readout Type	Measurement Units	Reading
CN(C)C(=O)c1cc2n(n1)CCCN(c1nc(OCC34CCCN3CCC4)nc3c1CCN(c1cc(O)cc(Cl)c1C1CC1)C3)C2 [Example 437]	IC50	nM	14
Cc1cc2[nH]ncc2c(N2CCc3c(nc(OCC4(CN(C)C)CC4)nc3N3CCC[C@]4(C3)NC(=O)NC4=O)C2)c1C [Example 462]	IC50	nM	9
Cc1cc2[nH]ncc2c(N2CCc3c(nc(OCC45CCCN4CCC5)nc3N3CCCC4(CNS(=O)(=O)N4)C3)C2)c1C (stereo not drawn) [Example 452]	IC50	nM	8
CCc1cccc2cccc(N3CCc4c(nc(OCC5(CN(C)C)CC5)nc4NC4CCCc5[nH]ncc54)C3)c12 (stereo not drawn) [Example 542]	IC50	nM	15800

Task: Bench note: what IC50 did CCc1cccc2cccc(N3CCc4c(nc(OCC5(CN(C)C)CC5)nc4NCc4ncc5c(n4)CCOC5)C3)c12 [Example 701] show?
Result: 6620

---

System: H727 cells
Test: Inhibition of KRas-mediated phosphorylation of ERK (Cisbio HTRF pERK), H727 cells
Format: cell-based
Conditions: Homo sapiens, NCI-H727, single point at 100 nM, 3 hrs compound incubation
Readout Type: inhibition at 0.1 µM (%)
Give the quantity in %, number only.

The cases that follow already have their inhibition at 0.1 µM on record.
Compound	Measured Target	inhibition at 0.1 µM [%]
CCc1c(F)ccc2cc(O)cc(N3CCc4c(nc(OC[C@@]56CCCN5C[C@H](F)C6)nc4N4CCCn5nc(C(=O)N(C)C6CC6)cc5C4)C3)c12	H727 cells	85
Cc1c(F)ccc2cc(O)cc(N3CCc4c(nc(OC[C@@]56CCCN5C[C@H](F)C6)nc4N4CCCC5(CNS(=O)(=O)N5)C4)C3)c12 (stereo partly shown)	H727 cells	42
CCc1c(F)ccc2cc(O)cc(N3CCc4c(nc(OC[C@@]56CCCN5C[C@H](F)C6)nc4N4CCCCn5nc(C(=O)N(C)C)c(Br)c5C4)C3)c12	H727 cells	79

For the next question, use this compound.
Task: So what's the measured inhibition at 0.1 µM for this one? CCc1c(F)ccc2cc(O)cc(N3CCc4c(nc(OC[C@@]56CCCN5C[C@H](F)C6)nc4N4CCCn5nc(C(=O)N6CC7CC6CN7)cc5C4)C3)c12 (stereo partly shown)
Result: 7

---

Entries annotated with measured IC50
Biological target: KRas G12S (Homo sapiens, UniProt P01116, G12S)
Sequence (P01116 1-169 isoform P01116-2 G12S): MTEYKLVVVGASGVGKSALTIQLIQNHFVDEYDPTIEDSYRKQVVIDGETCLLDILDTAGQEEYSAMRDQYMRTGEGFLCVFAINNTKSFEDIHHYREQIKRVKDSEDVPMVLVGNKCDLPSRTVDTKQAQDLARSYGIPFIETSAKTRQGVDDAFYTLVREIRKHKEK
Assay type: binding
Settings: TR-FRET displacement, read-out: Binding to KRas (IC50 nM) G12S

Compound	IC50
C=C1CN2CCCC2(COc2nc3c(c(N4CCCC5(CNS(=O)(=O)N5)C4)n2)CCN(c2cc(O)cc4ccc(F)c(CC)c24)C3)C1 (stereo not drawn)	< 2 nM
C[C@@H]1C[C@@H]1c1c(Cl)cc2[nH]ncc2c1N1CCc2c(nc(OCC34CCCN3CCC4)nc2N2CCC[C@]3(C2)NC(=O)NC3=O)C1	< 2 nM

Task: Hello, I am looking for reported IC50 with KRas G12S (Homo sapiens, UniProt P01116, G12S) for CCc1c(F)ccc2cc(O)cc(N3CCc4c(nc(OCC56CCCN5C/C(=C\F)C6)nc4N4CCC[C@]5(C4)NC(=O)NC5=O)C3)c12 (stereo partly drawn) . Could you help?
Result: < 2 nM

---

Items are presented alongside their recorded IC50.
Target: KRas Q61H (Homo sapiens, UniProt P01116, Q61H)
Sequence (P01116 1-169 isoform P01116-2 Q61H): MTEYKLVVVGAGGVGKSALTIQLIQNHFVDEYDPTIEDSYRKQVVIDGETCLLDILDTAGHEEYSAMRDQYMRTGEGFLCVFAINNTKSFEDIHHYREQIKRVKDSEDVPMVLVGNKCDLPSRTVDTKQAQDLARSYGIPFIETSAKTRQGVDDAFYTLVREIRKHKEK
Assay: KRas binding assay (TR-FRET displacement), KRas Q61H
Conditions: TR-FRET displacement

Please review the following examples before continuing.
Molecule	IC50
C[C@@H]1C[C@@H]1c1c(Cl)cc2[nH]ncc2c1N1CCc2c(nc(OCC34CCCN3CCC4)nc2N2CCC[C@]3(C2)NC(=O)NC3=O)C1	< 2 nM
CCc1cccc2cccc(N3CCc4c(nc(OCC5(CN(C)C)CC5)nc4N(C)Cc4nnnn4C)C3)c12	> 100000 nM
O=C1NC(=O)[C@]2(CCCN(c3nc(OCC45CCCN4CCC5)nc4c3CCN(c3c(C5CC5)c(Cl)cc5[nH]ncc35)C4)C2)N1	< 2 nM
O=C1NC(=O)C2(CCCN(c3nc(OCC45CCCN4CCC5)nc4c3CCN(c3cc(O)cc(Cl)c3C3CC3)C4)C2)N1 (centres unmarked)	< 2 nM

For the next question, use this molecule.
Task: What IC50 value was documented for this molecule, O=S1(=O)NCC2(CCCN(c3nc(OCC45CCCN4CCC5)nc4c3CCN(c3cc(O)cc(Cl)c3C3CC3)C4)C2)N1 (centres unmarked) ?
Result: < 2 nM

---

Entries annotated with measured IC50
Biological target: KRas G12D (Homo sapiens, UniProt P01116, G12D)
Sequence (P01116 1-169 isoform P01116-2 G12D): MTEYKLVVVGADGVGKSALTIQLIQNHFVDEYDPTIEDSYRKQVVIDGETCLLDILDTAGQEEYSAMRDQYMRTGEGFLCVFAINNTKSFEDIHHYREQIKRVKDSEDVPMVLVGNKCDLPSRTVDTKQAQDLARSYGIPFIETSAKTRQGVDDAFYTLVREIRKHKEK
Experiment: biochemical
Details: Binding to KRas (IC50 nM) G12D, TR-FRET displacement, KRas G12D
The answer is to be given in nM; state only the numeric part.

Before answering, review these 4 worked examples.
Compound	Measured Target	Reading
Cc1cc2[nH]ncc2c(N2CCc3c(nc(OCC45CCCN4CCC5)nc3N3CCCC4(CNC(=O)N4)C3)C2)c1C (stereo not shown)	KRas G12D (Homo sapiens, UniProt P01116, G12D)	11
C[C@@H]1C[C@@H]1c1c(Cl)cc(O)cc1N1CCc2c(nc(OC[C@@]34CCCN3C[C@H](F)C4)nc2N2CCC[C@@](C)(O)C2)C1 (stereo in doubt)	KRas G12D (Homo sapiens, UniProt P01116, G12D)	5
C[C@@H]1C[C@@H]1c1c(Cl)cc(O)cc1N1CCc2c(nc(OC[C@@]34CCCN3C[C@H](F)C4)nc2N2CCC[C@]3(CNS(=O)(=O)N3)C2)C1 (stereo in doubt)	KRas G12D (Homo sapiens, UniProt P01116, G12D)	2
CCc1c(F)ccc2cc(O)cc(N3CCc4c(nc(OC[C@@]56CCCN5C[C@H](F)C6)nc4N4CCCn5nc(CNC(=O)N(C)C)cc5C4)C3)c12	KRas G12D (Homo sapiens, UniProt P01116, G12D)	3

Task: Would you kindly share the measured IC50 for CCc1c(F)ccc2cc(O)cc(N3CCc4c(nc(OCC5(CN(C)C)CC5)nc4N4CCCC(n5ccc(C)n5)C4)C3)c12 (stereo not shown) ?
Result: 33

Task: Any idea what IC50 was measured for CCc1cccc2cccc(N3CCc4c(nc(OCC5(CN(C)C)CC5)nc4NCc4nc(C5CC5)n[nH]4)C3)c12 ?
Result: 6300

Task: Dear colleague, I am looking for the recorded IC50 of the following compound: CCc1cccc2cccc(N3CCc4c(nc(OCC5(CN(C)C)CC5)nc4NCc4nnc5n4CCCCC5)C3)c12
Result: 5250

Task: For O=C1CC2(CCCN(c3nc(OCC45CCCN4CCC5)nc4c3CCN(c3cc(O)cc(Cl)c3C3CC3)C4)C2)N1 (stereo not shown) , what is its reported IC50?
Result: 6

---

Tested on: H460 cells
Experiment: Inhibition of KRas-mediated phosphorylation of ERK (Cisbio HTRF pERK), H460 cells
Type: cell-based
Conditions: Homo sapiens, NCI-H460, single point at 100 nM, 3 hrs compound incubation
Readout Type: inhibition at 0.1 µM (%)
Answer with a number only, understood to be in %.

Example molecules with recorded inhibition at 0.1 µM:
Molecule	Measurement Units	inhibition at 0.1 µM
CCc1c(F)ccc2cc(O)cc(N3CCc4c(nc(OC[C@@]56CCCN5C[C@H](F)C6)nc4N4CCCCn5nc(C(=O)N(C)C)cc5C4)C3)c12	%	84
CCc1c(F)ccc2cc(O)cc(N3CCc4c(nc(OC[C@@]56CCCN5C[C@H](F)C6)nc4N4CCCn5nc(N(C)C(C)=O)cc5C4)C3)c12	%	18

Task: Report inhibition at 0.1 µM for CCc1c(F)ccc2cc(O)cc(N3CCc4c(nc(OC[C@@]56CCCN5C[C@H](F)C6)nc4N4CCCCC(COC(C)C(=O)N(C)C)C4)C3)c12 (stereo partly drawn) please.
Result: 3

Task: I'd like to know its inhibition at 0.1 µM. The molecule in question is CCc1c(F)ccc2cc(O)cc(N3CCc4c(nc(OC[C@@]56CCCN5C[C@H](F)C6)nc4N4CCCc5nc(C(=O)N(C)C)sc5C4)C3)c12
Result: 25

Task: Reported inhibition at 0.1 µM, molecule CCc1c(F)ccc2cc(O)cc(N3CCc4c(nc(OC[C@@]56CCCN5C[C@H](F)C6)nc4N4CCCn5nc(C(=O)N6CCC7(CCN7)C6)cc5C4)C3)c12 (stereo partly drawn) : ____
Result: -10

Task: Record request: inhibition at 0.1 µM value, item CCc1c(F)ccc2cc(O)cc(N3CCc4c(nc(OC[C@@]56CCCN5C[C@H](F)C6)nc4N4CCCn5nc(CNC(=O)NC)cc5C4)C3)c12
Result: -4

Data origin: patent US20250368649A1
